target: BIR2 domain of XIAP (Homo sapiens (Human), UniProt P98170, C202A/C213G); test: TR-FRET assay for BIR2 (inhibition of binding of XIAP BIR2 domain to SMAC-derived Peptide A); conditions: 6x His-tagged BIR2 domain (aa 124-240 of XIAP) 10 nM, Peptide A 20 nM, TR-FRET; read-out: IC50 BIR2
Sequence (P98170 124-240 with tags or gaps C202A/C213G limits assumed): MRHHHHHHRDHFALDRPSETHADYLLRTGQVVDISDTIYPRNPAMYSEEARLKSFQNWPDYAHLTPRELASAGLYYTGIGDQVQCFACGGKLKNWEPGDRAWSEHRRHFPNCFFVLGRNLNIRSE
Counter-ions that a name gives are not always drawn.
MEASURED_ENDPOINT: IC50 (nM)
Numbers only, in nM.

{"MOLECULE": "CCN[C@@H](C)C(=O)N[C@H]1CN(C(=O)CS(C)(=O)=O)c2ccccc2N(Cc2c(OC)ccc3cc(Br)ccc23)C1=O [Example 149]", "IC50 [nM]": 183}
{"MOLECULE": "CN[C@@H](C)C(=O)N[C@@H]1C(=O)N(CC(=O)Nc2c(F)cccc2F)c2ccccc2N(C(C)=O)[C@H]1C [Example 190, hydrochloride]", "IC50 [nM]": 85.3}
{"MOLECULE": "CC(=O)c1ccc(C(=O)N2C[C@H](NC(=O)[C@H](C)N)C(=O)N(Cc3c(OCC(F)(F)F)ccc4ccccc34)c3ccccc32)cc1 [Example 69h]", "IC50 [nM]": 20}
{"MOLECULE": "CN[C@@H](C)C(=O)N[C@H]1CN(C(=O)CCCC(C)=O)c2ccccc2N(Cc2c(OC)ccc3cc(C(=O)OC)ccc23)C1=O [Example 46, hydrochloride]", "IC50 [nM]": 62}

Please give IC50 for each item listed below.
1. CN[C@@H](C)C(=O)N[C@H]1CN(C(=O)CCC(=O)O)c2ccccc2N(Cc2c(C)ccc3ccccc23)C1=O [Example 16, hydrochloride]
2. CN[C@@H](C)C(=O)N[C@H]1CN(S(=O)(=O)c2ccccc2)c2ccccc2N(Cc2c(C)ccc3ccccc23)C1=O [Example 98e]

1. 126
2. 133

====

target: BIR2 domain of XIAP (Homo sapiens (Human), UniProt P98170, C202A/C213G); assay: TR-FRET assay for BIR2 (inhibition of binding of XIAP BIR2 domain to SMAC-derived Peptide A); conditions: 6x His-tagged BIR2 domain (aa 124-240 of XIAP) 10 nM, Peptide A 20 nM, TR-FRET; read-out: IC50 BIR2
Structures can show the parent of a compound that is named as a salt.
MEASURED_ENDPOINT: IC50

{"COMPOUND": "CN[C@@H](C)C(=O)N[C@H]1CN(C(=O)c2ccc(C(C)=O)cc2)c2ccccc2N(CCc2cccc3ccccc23)C1=O [Example 40]", "OBSERVED": "173 nM"}
{"COMPOUND": "CN[C@@H](C)C(=O)N[C@H]1CN(C(=O)c2ccc(N)cc2)c2cc(Cl)ccc2N(Cc2c(C)ccc3ccccc23)C1=O [Example 121, hydrochloride]", "OBSERVED": "14.8 nM"}
{"COMPOUND": "CN[C@@H](C)C(=O)N[C@H]1CN(C(=O)c2ccc(N)cc2)c2ccccc2N(Cc2c(C)ccc3ccccc23)C1=O [Example 67, hydrochloride]", "OBSERVED": "22 nM"}
{"COMPOUND": "CN[C@@H](C)C(=O)N[C@H]1CN(C(=O)c2ccc(C(C)=O)cc2)c2cc(C#N)ccc2N(Cc2nn(-c3ccccc3C#N)c3ccccc23)C1=O [Example 162, hydrochloride]", "OBSERVED": "18.3 nM"}
{"COMPOUND": "CN[C@@H](C)C(=O)N[C@H]1CN2C(=O)CCCNC(=O)c3ccc4c(c(OC)ccc4c3)CN(C1=O)c1ccccc12 [Example 51, hydrochloride]", "OBSERVED": "58 nM"}

Quick batch: IC50 for everything below.
1. CC[C@H](NC)C(=O)NC1C(=O)N(C)c2ccccc2N(Cc2c(C)ccc3ccccc23)C1=O (stereo partly shown) [Example 114]
2. CN[C@@H](C)C(=O)N[C@H]1CN(C(=O)c2ccc(C(C)=O)cc2)c2cc(Cl)ccc2N(Cc2c(OC)ccc3c(Br)cccc23)C1=O [Example 125, hydrochloride]
3. CN[C@@H](C)C(=O)N[C@H]1CNc2cc(C#N)ccc2N(Cc2nn(-c3ccccc3C#N)c3ccccc23)C1=O [Example 168, dihydrochloride]
4. CN[C@@H](C)C(=O)N[C@H]1CN(S(C)(=O)=O)c2ccccc2N(Cc2c(C)ccc3ccccc23)C1=O [Example 19, hydrochloride]
5. CN[C@@H](C)C(=O)N[C@H]1CN(C(=O)c2ccc(C(=O)O)cc2)c2ccccc2N(Cc2c(OC)ccc3cc(Br)ccc23)C1=O [Example 29, hydrochloride]

530 nM
7.92 nM
95.7 nM
620 nM
28 nM
